B1: TPR t1 (parent)
chain: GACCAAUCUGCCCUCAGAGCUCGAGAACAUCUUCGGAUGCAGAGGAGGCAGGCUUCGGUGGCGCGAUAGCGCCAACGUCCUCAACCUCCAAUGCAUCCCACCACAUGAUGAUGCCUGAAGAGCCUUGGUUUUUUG

Variants of: B1
protocol: polymerase ribozyme fitness, log enrichment relative to wild type (log ratio); higher = more active; in vitro selection for triplet polymerase activity
# key: entry, value: polymerase ribozyme fitness (log ratio)
Quick one: just the number, no unit, thanks!

C4A A41U G58C G117A    -7.2

-- ask Recorded polymerase ribozyme fitness (log ratio) of G51U G120C U133G , please.
-- reply -1.86

-- ask Report polymerase ribozyme fitness (log ratio) for C8G G57A G117A A119U G135U please.
-- reply -2.27

-- ask polymerase ribozyme fitness (log ratio) lookup needed for G60A G63U , thanks.
-- reply -3.96
